- System: T1, Recombinant human Dkk-1 (R&D Systems cat no. 1096-DK/CF), 10xHis tag at the C terminal (human, UniProt O94907 32-266)
- T1 construct: the actual N-terminus of the purified protein is marked in bold italic after residue 30, but the mark is an image lost in the text; also called rhuDkk-1; hDkk-1
- T1 sequence: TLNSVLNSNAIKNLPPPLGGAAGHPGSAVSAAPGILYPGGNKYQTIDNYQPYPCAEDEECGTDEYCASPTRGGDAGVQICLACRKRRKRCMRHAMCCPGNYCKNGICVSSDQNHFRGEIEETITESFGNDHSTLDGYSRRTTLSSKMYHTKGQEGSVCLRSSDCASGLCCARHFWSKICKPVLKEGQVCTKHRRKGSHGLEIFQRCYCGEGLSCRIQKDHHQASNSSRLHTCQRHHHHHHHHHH
- Assay name: SPR screening 37C (BIAcore/ProteOn), Fab lysate over biotinylated human Dkk-1
Measured property: koff (s⁻¹)
Your answer is read as s⁻¹, so omit the unit and give the number.

L2.1G8 (Fab, V domains shown, tested as Fab (E. coli lysate, screening mode); human kappa CL and IgG2 CH1 not included here) VH: EVQLVESGGGLVQPGGSLRLSCAASGFTFSSYAISWVRQAPGKGLEWVASVSGWFDTYYPDSVKGRFTISRDNAKNSLYLQMNSLRAEDTAVYYCATSLENYAFDYWGQGTTVTVSS VL: EIVLTQSPATLSLSPGERATLSCRASESVDDFGISFMNWYQQKPGQAPRLLIYAASKQGSGIPARFSGSGSGTDFTLTISSLEPEDFAVYYCQQSKEVPPTFGGGTKVEIK :: 0.00255

Proceeding to the next binder to report its koff.
Entry L3.2H10 (Fab, V domains shown, tested as Fab (E. coli lysate, screening mode); human kappa CL and IgG2 CH1 not included here) VH: EVQLVESGGGLVQPGGSLRLSCAASGFTFSSYAISWVRQAPGKGLEWVASVSGWLGTYYPDSVKGRFTISRDNAKNSLYLQMNSLRAEDTAVYYCATSLKNYAFDYWGQGTTVTVSS VL: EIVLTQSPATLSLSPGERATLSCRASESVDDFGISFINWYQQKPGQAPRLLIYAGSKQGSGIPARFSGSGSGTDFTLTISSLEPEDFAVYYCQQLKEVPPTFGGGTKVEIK ; koff = 0.000569
